- Tested on: HOP-62 complex spheroids with HUVEC/MSC, viability
- Assay summary: Anticancer human tumor HOP-62 cell line growth inhibition [RAS];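 note: spheroids exposed to agents for seven days before readout; 100% = DMSO vehicle control viability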
- Details: second compound 3.16 µM; first compound 3.16 µM; stronger effect = lower value
Examples of compounds with documented viability, T/C follow.
Please reply with the bare figure in % and do not write the unit itself.

Sample records with viability, T/C:
CCC(CC)c1cc(NC2CCC(N)C2)n2nccc2n1 (stereo not drawn) + C#Cc1c(F)ccc2cc(O)cc(-c3ncc4c(N5CC6CCC(C5)N6)nc(OCC56CCCN5CC(F)C6)nc4c3F)c12	0.74
CC(C)NCC(C(=O)N1CCN(c2ncnc3c2C(C)CC3O)CC1)c1ccc(Cl)cc1 (stereo not drawn) + C#Cc1c(F)ccc2cc(O)cc(-c3ncc4c(N5CC6CCC(C5)N6)nc(OCC56CCCN5CC(F)C6)nc4c3F)c12	26.1

// moving on: another record for viability, T/C
Hi! What's the reported viability, T/C for CC1(O)CCCC1n1c(=O)c(C(F)F)cc2cnc(NC3CCN(S(C)(=O)=O)CC3)nc21 (stereo not drawn) + C#Cc1c(F)ccc2cc(O)cc(-c3ncc4c(N5CC6CCC(C5)N6)nc(OCC56CCCN5CC(F)C6)nc4c3F)c12 on HOP-62 complex spheroids with HUVEC/MSC, viability? 27.6

====

- Tested on: HOP-62 complex spheroids with HUVEC/MSC, viability
- Assay summary: Anticancer human tumor HOP-62 cell line growth inhibition [RAS];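 note: spheroids exposed to agents for seven days before readout; 100% = DMSO vehicle control viability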
- Details: second compound 0.03 µM; first compound 0.00316 µM; stronger effect = lower value
Observable: viability, T/C (%)
Please reply with the bare figure in % and do not write the unit itself.

Sample records with viability, T/C:
O=C(c1ccc(F)c(F)c1Nc1ccc(I)cc1F)N1CC(O)([C@@H]2CCCCN2)C1 + CCn1c(-c2cc(N3CCN(C)CC3)cnc2C(C)OC)c2c3cc(ccc31)-c1csc(n1)CC(NC(=O)C1CC1C)C(=O)N1CCCC(N1)C(=O)OCC(C)(C)C2	49.9
C=CC(=O)Nc1cc(Nc2nccc(-c3cn(C)c4ccccc34)n2)c(OC)cc1N(C)CCN(C)C + CCn1c(-c2cc(N3CCN(C)CC3)cnc2C(C)OC)c2c3cc(ccc31)-c1csc(n1)CC(NC(=O)C1CC1C)C(=O)N1CCCC(N1)C(=O)OCC(C)(C)C2	52
C=CC(=O)N1CCN(c2nc(OCC3CCCN3C)nc3c(F)c(-c4nc(N)cc(C)c4C(F)(F)F)c(Cl)cc23)C(C)C1 (centres undefined) + CCn1c(-c2cccnc2C(C)OC)c2c3cc(ccc31)N1CCOC(CC(NC(=O)C(C(C)C)N(C)C(=O)C3(F)CCN(C(=O)C#CC(C)(C)N(C)C)CC3)C(=O)N3CCCC(N3)C(=O)OCC(C)(C)C2)C1	91.3

Reported viability, T/C, compound CCN1CCN(Cc2ccc(Nc3ncc(F)c(-c4cc(F)c5nc(C)n(C(C)C)c5c4)n3)nc2)CC1 + CCn1c(-c2cccnc2C(C)OC)c2c3cc(ccc31)N1CCOC(CC(NC(=O)C(C(C)C)N(C)C(=O)C3(F)CCN(C(=O)C#CC(C)(C)N(C)C)CC3)C(=O)N3CCCC(N3)C(=O)OCC(C)(C)C2)C1 : ____ 96.6

====

Examples of compounds with documented viability, T/C follow.
- System: HOP-62 complex spheroids with HUVEC/MSC, viability
- Assay summary: Anticancer human tumor HOP-62 cell line growth inhibition [RAS];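 note: spheroids exposed to agents for seven days before readout; 100% = DMSO vehicle control viability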
- Details: second compound 0.0949 µM; first compound 0.1 µM; stronger effect = lower value
Please reply with the bare figure in % and do not write the unit itself.

CCN1CCN(Cc2ccc(Nc3ncc(F)c(-c4cc(F)c5nc(C)n(C(C)C)c5c4)n3)nc2)CC1 + CCn1c(-c2cccnc2C(C)OC)c2c3cc(ccc31)N1CCOC(CC(NC(=O)C(C(C)C)N(C)C(=O)C3(F)CCN(C(=O)C#CC(C)(C)N(C)C)CC3)C(=O)N3CCCC(N3)C(=O)OCC(C)(C)C2)C1	74.4
C=CC(=O)Nc1cc(Nc2nccc(-c3cn(C)c4ccccc34)n2)c(OC)cc1N(C)CCN(C)C + CCn1c(-c2cc(N3CCN(C)CC3)cnc2C(C)OC)c2c3cc(ccc31)-c1csc(n1)CC(NC(=O)C1CC1C)C(=O)N1CCCC(N1)C(=O)OCC(C)(C)C2	32.1
O=C(c1ccc(F)c(F)c1Nc1ccc(I)cc1F)N1CC(O)([C@@H]2CCCCN2)C1 + CCn1c(-c2cc(N3CCN(C)CC3)cnc2C(C)OC)c2c3cc(ccc31)-c1csc(n1)CC(NC(=O)C1CC1C)C(=O)N1CCCC(N1)C(=O)OCC(C)(C)C2	41.7
Nc1ccn(C2OC(CO)C(O)C2(F)F)c(=O)n1 (stereo not given) + CCn1c(-c2cc(N3CCN(C)CC3)cnc2C(C)OC)c2c3cc(ccc31)-c1csc(n1)CC(NC(=O)C1CC1C)C(=O)N1CCCC(N1)C(=O)OCC(C)(C)C2	28.9
NC1c2ccccc2OC12CCN(c1cnc3c(N4CCCc5ncccc54)n[nH]c3n1)CC2 (stereo not given) + CCn1c(-c2cc(N3CCN(C)CC3)cnc2C(C)OC)c2c3cc(ccc31)-c1csc(n1)CC(NC(=O)C1CC1C)C(=O)N1CCCC(N1)C(=O)OCC(C)(C)C2	24.8

Reported viability, T/C, compound CC(Nc1ccc2c(c1)OCCn1cc(N3C(=O)OCC3C(F)F)nc1-2)C(N)=O (stereo not given) + CCn1c(-c2cccnc2C(C)OC)c2c3cc(ccc31)N1CCOC(CC(NC(=O)C(C(C)C)N(C)C(=O)C3(F)CCN(C(=O)C#CC(C)(C)N(C)C)CC3)C(=O)N3CCCC(N3)C(=O)OCC(C)(C)C2)C1 : ____ 53.9

Reported viability, T/C, compound CC(=O)OC12COC1CC(O)C1(C)C(=O)C(O)C3=C(C)C(OC(=O)C(O)C(NC(=O)OC(C)(C)C)c4ccccc4)CC(O)(C(OC(=O)c4ccccc4)C21)C3(C)C (stereo not given) + CCn1c(-c2cccnc2C(C)OC)c2c3cc(ccc31)N1CCOC(CC(NC(=O)C(C(C)C)N(C)C(=O)C3(F)CCN(C(=O)C#CC(C)(C)N(C)C)CC3)C(=O)N3CCCC(N3)C(=O)OCC(C)(C)C2)C1 : ____ 34.1

Reported viability, T/C, compound Nc1ccn(C2OC(CO)C(O)C2(F)F)c(=O)n1 (stereo not given) + CCn1c(-c2cccnc2C(C)OC)c2c3cc(ccc31)N1CCOC(CC(NC(=O)C(C(C)C)N(C)C(=O)C3(F)CCN(C(=O)C#CC(C)(C)N(C)C)CC3)C(=O)N3CCCC(N3)C(=O)OCC(C)(C)C2)C1 : ____ 8.95

Reported viability, T/C, compound CC(=O)OC12COC1CC(O)C1(C)C(=O)C(O)C3=C(C)C(OC(=O)C(O)C(NC(=O)OC(C)(C)C)c4ccccc4)CC(O)(C(OC(=O)c4ccccc4)C21)C3(C)C (stereo not given) + CCn1c(-c2cc(N3CCN(C)CC3)cnc2C(C)OC)c2c3cc(ccc31)-c1csc(n1)CC(NC(=O)C1CC1C)C(=O)N1CCCC(N1)C(=O)OCC(C)(C)C2 : ____ 33.6

Reported viability, T/C, compound Cc1nc(N2CCC3(CC2)COC(C)C3N)c(CO)nc1Sc1ccnc(N)c1Cl (stereo not given) + CCn1c(-c2cccnc2C(C)OC)c2c3cc(ccc31)N1CCOC(CC(NC(=O)C(C(C)C)N(C)C(=O)C3(F)CCN(C(=O)C#CC(C)(C)N(C)C)CC3)C(=O)N3CCCC(N3)C(=O)OCC(C)(C)C2)C1 : ____ 64.2

Reported viability, T/C, compound CC(C)NCC(C(=O)N1CCN(c2ncnc3c2C(C)CC3O)CC1)c1ccc(Cl)cc1 (stereo not given) + CCn1c(-c2cccnc2C(C)OC)c2c3cc(ccc31)N1CCOC(CC(NC(=O)C(C(C)C)N(C)C(=O)C3(F)CCN(C(=O)C#CC(C)(C)N(C)C)CC3)C(=O)N3CCCC(N3)C(=O)OCC(C)(C)C2)C1 : ____ 80.4

Reported viability, T/C, compound C=CC(=O)N1CCN(c2nc(OCC3CCCN3C)nc3c(F)c(-c4nc(N)cc(C)c4C(F)(F)F)c(Cl)cc23)C(C)C1 (stereo not given) + CCn1c(-c2cc(N3CCN(C)CC3)cnc2C(C)OC)c2c3cc(ccc31)-c1csc(n1)CC(NC(=O)C1CC1C)C(=O)N1CCCC(N1)C(=O)OCC(C)(C)C2 : ____ 36.7

Reported viability, T/C, compound CCC(CC)c1cc(NC2CCC(N)C2)n2nccc2n1 (stereo not given) + CCn1c(-c2cc(N3CCN(C)CC3)cnc2C(C)OC)c2c3cc(ccc31)-c1csc(n1)CC(NC(=O)C1CC1C)C(=O)N1CCCC(N1)C(=O)OCC(C)(C)C2 : ____ 49.5

Reported viability, T/C, compound CC1(O)CCCC1n1c(=O)c(C(F)F)cc2cnc(NC3CCN(S(C)(=O)=O)CC3)nc21 (stereo not given) + CCn1c(-c2cccnc2C(C)OC)c2c3cc(ccc31)N1CCOC(CC(NC(=O)C(C(C)C)N(C)C(=O)C3(F)CCN(C(=O)C#CC(C)(C)N(C)C)CC3)C(=O)N3CCCC(N3)C(=O)OCC(C)(C)C2)C1 : ____ 67.1

Reported viability, T/C, compound CC(C)NCC(C(=O)N1CCN(c2ncnc3c2C(C)CC3O)CC1)c1ccc(Cl)cc1 (stereo not given) + CCn1c(-c2cc(N3CCN(C)CC3)cnc2C(C)OC)c2c3cc(ccc31)-c1csc(n1)CC(NC(=O)C1CC1C)C(=O)N1CCCC(N1)C(=O)OCC(C)(C)C2 : ____ 40.6
